Test system: CP217
TEST PROTOCOL: qHTS profiling for inhibitors of Plasmodium falciparum proliferation (AID 504749);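 further: 0% = DMSO vehicle and full inhibition = artemisinin control; nearly all actives have a fitted effect of over 60% in size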
CONDITION DESCRIPTION: P. falciparum in erythrocytes, SYBR Green DNA, 72 h; series mostly up to 28.7 µM
Inconclusive results are not listed. Calls of active or inactive are those of the source. The call rests on the fitted dose curve; in most records, active means well fitted inhibition curve with a large enough effect; inconclusive means small, poorly fitted or top-dose-only effect; inactive means flat fitted curve, though single readings scatter.
RESULT TYPE: outcome

Below are worked cases with known answers.
>>> result("CC(C)CCCCCCc1ccc(O)cc1")
"inactive"
>>> result("CC(=O)Oc1cccc(C(=O)O)c1OC(C)=O")
"inactive"
>>> result("COc1ccc2nc(NC(=O)Nc3ccccc3)sc2c1")
"inactive"
>>> result("NC(=O)C1c2ccccc2CCc2ccccc21")
"inactive"
>>> result("CCOc1ccc(S(=O)(=O)O)c2cccnc12")
"inactive"

Provide the reported outcome of each entry below, same order.
1. CC(=O)N=c1sc(S(N)(=O)=O)nn1C
2. CC/C=C\C/C=C\C/C=C\C/C=C\C/C=C\C/C=C\CCC(=O)O
3. O=[n+]1ccn([O-])c2ccccc21
4. O=P(O)(O)O
5. CC1CC(OC(=O)C(O)c2ccccc2)CC(C)(C)C1 (stereo not drawn)
6. C=C(C)C1CC=C(C)CC1 (stereo not drawn)

Ans:
1: inactive; 2: inactive; 3: inactive; 4: inactive; 5: inactive; 6: inactive

Here are 8 compounds. What values of outcome were reported for them?
1. C[C@]12CC[C@@H]3c4ccc(OC(=O)c5ccccc5)cc4CC[C@H]3[C@@H]1CC[C@@H]2O
2. CC1(O)CCC(C(C)(C)O)CC1 (stereo not drawn)
3. C[C@H](CCCC(C)(C)O)[C@H]1CC[C@H]2[C@@H]3CC=C4C[C@@H](O)CC[C@]4(C)[C@H]3CC[C@]12C
4. CN(CCO)CC(O)Cn1cnc2c1c(=O)n(C)c(=O)n2C (stereo not drawn) (tested in a mixture with another compound)
5. O=S(=O)(O)CC(S)CS (stereo not drawn)
6. FC(F)OC(Cl)C(F)(F)F (stereo not drawn)
7. CS(=O)(=O)OCC(O)C(O)COS(C)(=O)=O (stereo not drawn)
8. CC(C)=CCC/C(C)=C/C=C/C(C)=C/C=C/C(C)=C/C=C/C=C(C)/C=C/C=C(C)/C=C/C=C(\C)CCC=C(C)C

Ans:
inactive
inactive
inactive
inactive
inactive
inactive
inactive
inactive

* * *

MEASURED TARGET: Voltage-gated inwardly rectifying potassium channel KCNH2 (Homo sapiens) (UniProt Q12809)
Sequence (Q12809 whole entry, looked up): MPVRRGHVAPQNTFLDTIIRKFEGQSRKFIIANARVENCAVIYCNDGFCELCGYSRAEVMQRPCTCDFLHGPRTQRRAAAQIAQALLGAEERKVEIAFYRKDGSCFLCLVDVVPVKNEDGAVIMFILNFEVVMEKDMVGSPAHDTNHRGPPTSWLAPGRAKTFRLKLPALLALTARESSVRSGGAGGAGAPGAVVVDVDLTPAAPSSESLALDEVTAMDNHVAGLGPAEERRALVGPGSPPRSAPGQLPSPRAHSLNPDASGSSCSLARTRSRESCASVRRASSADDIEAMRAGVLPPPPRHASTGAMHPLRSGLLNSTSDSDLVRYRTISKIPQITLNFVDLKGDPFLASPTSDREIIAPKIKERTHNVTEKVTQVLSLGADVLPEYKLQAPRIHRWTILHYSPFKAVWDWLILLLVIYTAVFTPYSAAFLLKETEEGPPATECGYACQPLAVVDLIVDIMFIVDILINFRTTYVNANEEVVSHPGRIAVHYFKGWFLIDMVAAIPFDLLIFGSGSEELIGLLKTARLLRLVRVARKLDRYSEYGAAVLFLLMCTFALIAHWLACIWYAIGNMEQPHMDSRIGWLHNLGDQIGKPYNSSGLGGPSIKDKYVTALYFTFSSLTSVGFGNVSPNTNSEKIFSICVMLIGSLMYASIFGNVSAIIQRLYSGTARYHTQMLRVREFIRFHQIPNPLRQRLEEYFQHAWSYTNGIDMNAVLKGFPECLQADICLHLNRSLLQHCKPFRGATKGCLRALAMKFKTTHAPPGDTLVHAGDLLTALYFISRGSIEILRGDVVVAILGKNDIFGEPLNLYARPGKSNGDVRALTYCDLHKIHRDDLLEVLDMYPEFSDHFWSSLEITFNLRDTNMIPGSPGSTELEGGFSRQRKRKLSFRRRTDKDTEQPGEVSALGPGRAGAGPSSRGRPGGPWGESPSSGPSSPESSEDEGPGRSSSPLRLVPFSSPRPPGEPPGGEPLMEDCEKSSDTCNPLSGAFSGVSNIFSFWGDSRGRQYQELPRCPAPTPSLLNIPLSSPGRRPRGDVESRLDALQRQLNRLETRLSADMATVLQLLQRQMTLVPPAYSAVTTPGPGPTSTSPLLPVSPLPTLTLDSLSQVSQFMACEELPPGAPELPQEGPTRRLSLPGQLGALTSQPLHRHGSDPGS
TEST PROTOCOL: qHTS Assay for Small Molecule Inhibitors of the Human hERG Channel Activity (AID 588834);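 further: lower thallium flux fluorescence means stronger hERG block; nearly all actives have a fitted effect of over 50% in size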
CONDITION DESCRIPTION: U2OS BacMam hERG, FluxOR thallium flux fluorescence; series mostly up to 46.1 µM
Inconclusive results are not listed. Active and inactive are the calls of the source. Calls follow the shape of the dose curve; as a rule, active = well fitted inhibition curve with a large enough effect; inconclusive = small, poorly fitted or top-dose-only effect; inactive = flat fitted curve, though single readings scatter.
Give one outcome, nothing more. List: TRUE (active), FALSE (inactive)

Consider the following illustrative entries.
>>> qualitative_label("C[N@+]12CCCC[C@@H]1CCC(=C(c1cccs1)c1cccs1)C2")
"TRUE"
>>> qualitative_label("C[S+](C)CCC(N)C(=O)O (centres undefined)")
"FALSE"
>>> qualitative_label("COC1[C@@H](O[C@@H]2O[C@H](C)[C@@H](O[C@H]3C[C@@](C)(O)[C@H](OC(=O)CC(C)C)[C@H](C)O3)[C@H](N(C)C)[C@H]2O)[C@@H](CC=O)C[C@@H](C)[C@@H](O)/C=C/C=C/C[C@@H](C)OC(=O)C[C@H]1OC(C)=O (some centres undefined)")
"FALSE"

Q: Just curious, what result did CC(CC=O)CCCC(C)(C)O (centres undefined) get here?
Ans: FALSE

Q: Returns: the outcome recorded for [O]=[Bi][O]C(=O)[O][Bi]=[O] in this assay.
Ans: FALSE

* * *

TEST PROTOCOL: Cellular Toxicity (caspase-3) BJ (AID 658);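 further: cells exposed to compound for 16 hours; 0% = DMSO basal and 100% = 10 µM staurosporine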
CONDITION DESCRIPTION: BJ fibroblasts, luminescence; caspase-3 activation; series mostly up to 91.7 µM
Excerpt: NIH Chemical Genomics Center [NCGC] NIH Molecular Libraries Screening Centers Network [MLSCN] National Institutes of Environmental Health Sciences [NIEHS] National Toxicology Program [NTP] We have developed a 1536-well cell-based assay for quantitative high throughput screening (qHTS) against a number of cell lines to determine in vitro caspase 3/7 activity of small molecules. […] 8. Detection; Luminescence; Viewlux plate reader […]
Active and inactive are the calls of the source. The call rests on the fitted dose curve; in most records, active means well fitted curve in the direction sought with a large enough effect; inconclusive means small, poorly fitted or top-dose-only effect, or another doubt; inactive means no such curve, though single readings can be large or run the other way.
RESULT TYPE: outcome

>>> result("Cc1ccc(S(=O)(=O)O)cc1C")
"inactive"
>>> result("NCCN")
"inactive"
>>> result("Nc1nccs1")
"inactive"

* * *

Kindly supply the reported max response values for the records listed here.
TEST PROTOCOL: qHTS Assay for Identifying Gametocytocidal Compounds (AID 743244);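 further: on the % scale 0 is the no-effect control and ±100 the full control effect; actives lower the fluorescent signal which means gametocytes are killed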
CONDITION DESCRIPTION: P. falciparum 3D7 stage III-V gametocytes, alamarBlue, 72 h; hits give low values
Results filed as inconclusive are left out.
Numbers only, in %.

Examples with answers:
>>> recorded_number("N[C@H](CC(=O)O)C(=O)O")
2.16
>>> recorded_number("C=CCOc1ccc(CC(=O)O)cc1Cl")
22.7
>>> recorded_number("Cn1nnnc1SCC1=C(C(=O)O)N2C(=O)[C@@H](NC(=O)[C@H](O)c3ccccc3)[C@H]2SC1")
-1.19

Batch: max response for all items listed.
1. O=C(O)[C@H]1CN(C/C=C/P(=O)(O)O)CCN1
2. CC(C)(C)C(=O)OCC(=O)[C@H]1CC[C@H]2[C@@H]3CCC4=CC(=O)CC[C@]4(C)[C@H]3CC[C@]12C

Ans:
1. 12.3
2. 6.08

* * *

TEST PROTOCOL: Drug repurposing screens with cells derived from glioblastoma tumor samples (AID 1345199); further: on the % scale 0 is the no-effect control and ±100 the full control effect; nearly all actives have a fitted effect of over 40% in size
CONDITION DESCRIPTION: GBM patient neurospheres viability, ATP luminescence, 48 h; at 45.9 µM (top of the series); tumour line D
Results filed as inconclusive are left out.
Kindly supply the reported activity, negative = cell killing values for the records listed here.
One number for each entry, in %.

>>> recorded_number("O=C1NC(=O)[C@H]2[C@@H]1[C@@H]1C=C[C@H]2C1")
-1.45

Can you give me activity, negative = cell killing for all of these, one by one?
1. CC(O)CN(C)C (stereo unspecified)
2. CCC(Oc1ccccc1)C(=O)N[C@@H]1C(=O)N2[C@@H]1SC(C)(C)[C@@H]2C(=O)O (stereo partly specified)
3. O=C(OC[C@H]1O[C@](O)(COC(=O)c2cccnc2)[C@@H](OC(=O)c2cccnc2)[C@@H]1OC(=O)c1cccnc1)c1cccnc1
4. Cn1c(O)c(N=NC(N)=S)c2ccccc21
5. OC[C@@H](O)C(O)[C@H](O)CO

Ans:
[-11.2, -5.25, -0.117, -18.5, -11.3]

Give one value of activity, negative = cell killing per listed compound.
1. NCC[C@H](O)C(=O)N[C@@H]1C[C@H](N)[C@@H](O[C@H]2O[C@H](CN)CC[C@H]2N)[C@H](O)[C@H]1O[C@H]1O[C@H](CO)[C@@H](O)[C@H](N)[C@H]1O
2. OCCCNc1ccccc1
3. CCC(C)[C@@H](N)C(=O)O (stereo partly specified)

Ans:
[-8.34, -0.692, -6.09]

// for each compound below, give its activity, negative = cell killing
1. Cc1ccc(S(=O)(=O)NC(=O)N[C@@H](C)Cc2ccccc2)cc1
2. CN(C)C=Nc1c(I)cc(I)c(CCC(=O)O)c1I

Ans:
[-19.4, 6.53]

* * *

TEST PROTOCOL: qHTS profiling for inhibitors of Plasmodium falciparum proliferation (AID 504749);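 further: 0% = DMSO vehicle and full inhibition = artemisinin control; nearly all actives have a fitted effect of over 60% in size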
CONDITION DESCRIPTION: P. falciparum in erythrocytes, SYBR Green DNA, 72 h; at 28.7 µM (top of the series); parasite line B
Procedure: NIH National Institute of Allergy and Infectious Diseases [NIAID] NIH Chemical Genomics Center [NCGC] […] Because mature erythrocytes lack DNA, only Plasmodium-derived DNA is detected. NCGC Assay Protocol Summary: The SYBR Green viability assay was adapted from a method described previously (Plouffe et al., 2008). […] The following morning, fluorescence intensity at 485(14) nm excitation and 535(25) nm emission wavelengths was measured on an EnVision (Perkin Elmer) plate reader. […]
Results filed as inconclusive are left out.
Please respond with reported activity, negative = inhibition for every item in the list.
Numbers only, in %.

Use the examples below as a reference point.
>>> recorded_number("C[C@]12CCC(=O)C[C@@H]1CC[C@@H]1[C@@H]2CC[C@]2(C)C=CC[C@@H]12")
-5.73
>>> recorded_number("CCCC(=O)O")
16.4
>>> recorded_number("O=C(O)[C@H]1CN(C/C=C/P(=O)(O)O)CCN1")
6.62
>>> recorded_number("CC1CC(OC(=O)C(O)c2ccccc2)CC(C)(C)C1 (stereo not given)")
-1.53
>>> recorded_number("CO")
-8

Return reported activity, negative = inhibition values for all items listed beneath this line.
1. CC(C)=CCC/C(C)=C/C=C/C(C)=C/C=C/C(C)=C/C=C/C=C(C)/C=C/C=C(C)/C=C/C=C(\C)CCC=C(C)C
2. CC(O)CN(C)C (stereo not given)
3. CN(CCO)CC(O)Cn1cnc2c1c(=O)n(C)c(=O)n2C (stereo not given) (tested in a mixture with another compound)
4. O=C(O)/C=C/C(=O)Nc1ccc(S(=O)(=O)Nc2nccs2)cc1
5. O=C1N=C2SCCN2C(=O)C1Cc1ccc(Cl)cc1 (stereo not given)
6. CC(C)NCC(O)COc1ccccc1-n1cccc1 (stereo not given)
7. CC(C)(COP(=O)(O)OP(=O)(O)OC[C@H]1O[C@@H](n2cnc3c(N)ncnc32)[C@H](O)[C@@H]1OP(=O)(O)O)C(O)C(=O)NCCC(=O)NCCS (stereo not given in full)

Ans:
[-16, -4.96, 12.8, -1.66, 17.2, -1.41, 2.39]

Here are 6 molecules. What values of activity, negative = inhibition were reported for them?
1. CCOC(=S)SSC(=S)OCC
2. F[Si-2](F)(F)(F)(F)F
3. CC(/C=C/C=C(\C)C(=O)O[C@@H]1O[C@H](CO[C@@H]2O[C@H](CO)[C@@H](O)[C@H](O)[C@H]2O)[C@@H](O)[C@H](O)[C@H]1O)=C\C=C\C=C(C)\C=C\C=C(/C)C(=O)O[C@@H]1O[C@H](CO[C@@H]2O[C@H](CO)[C@@H](O)[C@H](O)[C@H]2O)[C@@H](O)[C@H](O)[C@H]1O
4. O=C(O[C@H]1CN2CCC1CC2)N1CCc2ccccc2[C@@H]1c1ccccc1
5. O=C(O)[C@H]1C(=CCO)O[C@H]2CC(=O)N12
6. c1ccc2c(c1)OCC(CN1CCCCC1)O2 (stereo not given)

Ans:
1. -0.533
2. 19.2
3. -1.1
4. -19.3
5. 1.77
6. 0.843

Dear colleague, could you send me activity, negative = inhibition for each of the items below? Thanks.
1. COc1ccc2c(=O)c(C)c(-c3ccccc3)oc2c1CN(C)C
2. O=c1n(CC2CO2)c(=O)n(CC2CO2)c(=O)n1CC1CO1 (stereo not given)
3. CC1=C(/C=C/C(C)=C/C=C/C(C)=C/C(=O)Oc2c(C)c(C)c3c(c2C)CC[C@@](C)(CCC[C@H](C)CCC[C@H](C)CCCC(C)C)O3)C(C)(C)CCC1

Ans:
[-7.38, -29.5, 7.26]

Can you give me activity, negative = inhibition for all of these, one by one?
1. Cc1ncc(COP(=O)(O)O)c(CN)c1O
2. OCC(O)CO

Ans:
1: 3.16; 2: 7.55
